Molecular target: Microsomal glutathione transferase 1 (MGST1) (Rattus norvegicus)
Sequence (P08011 2-155): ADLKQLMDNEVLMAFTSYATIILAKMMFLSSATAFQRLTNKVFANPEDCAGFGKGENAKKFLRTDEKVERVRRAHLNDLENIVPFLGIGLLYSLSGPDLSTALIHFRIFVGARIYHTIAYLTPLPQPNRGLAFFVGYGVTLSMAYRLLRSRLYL
metric-name: Kd (µM)

N[C@@H](CCC(=O)N[C@@H](CSc1ccc([N+](=O)[O-])cc1[N+](=O)[O-])C(=O)NCC(=O)O)C(=O)O: 320
